Where do these numbers come from? They come from patent US20200147235A1.

Target: T1, Human CD98 ECD with C-terminal His-tag (human, UniProt P08195 105-529)
T1 construct: also called huCD98 ECD; recombinant human CD98 extracellular domain
T1 sequence: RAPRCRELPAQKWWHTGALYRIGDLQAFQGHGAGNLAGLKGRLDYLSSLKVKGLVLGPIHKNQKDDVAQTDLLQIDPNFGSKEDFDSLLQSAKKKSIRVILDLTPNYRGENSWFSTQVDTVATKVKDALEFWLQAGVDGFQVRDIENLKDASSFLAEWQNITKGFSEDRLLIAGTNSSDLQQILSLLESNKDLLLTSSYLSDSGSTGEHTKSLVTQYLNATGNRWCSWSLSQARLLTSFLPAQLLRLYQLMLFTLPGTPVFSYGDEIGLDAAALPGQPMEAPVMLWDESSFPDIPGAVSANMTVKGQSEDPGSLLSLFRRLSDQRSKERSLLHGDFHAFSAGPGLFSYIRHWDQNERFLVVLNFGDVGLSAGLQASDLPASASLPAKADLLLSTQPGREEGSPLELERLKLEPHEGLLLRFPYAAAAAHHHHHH
Assay: SPR Biacore, anti-Fc capture of mAb, CD98 ECD analyte
Procedure: The binding kinetics of these purified mouse and rat monoclonal anti-CD98 antibodies for purified recombinant CD98 protein (extracellular domain. ECD) were determined by surface plasmon resonance-based measurements made on Biacore T100/T200 instruments (GE Healthcare, Piscataway, N.J.) at 25° C. using an anti-Fc capture assay approach. Binding kinetic measurements were made in the assay buffer HBS-EP+: 10 mM Hepes, pH 7.4, 150 mM NaCl, 3 mM EDTA, 0.05% Tween 20). […]
Measurement name: pKd
Reminder that pKd is minus the log10 of a molar concentration.

Below, 2 binders whose answers are already recorded.
1. Recombinant anti-CD98 chimeric antibody chAb5 (antibody, human IgG1, V domains shown) VH: EVKLVESGGGLVQPGGSLRLSCATSGFTFTDYYMTWVRQPPGKALEWLGFIRNKANGYTTEYSASVKGRFTISRDNSLSILYLQMNTLRAEDSATYYCARASYVNSEGWFAYWGQGTLVTVSA VL: DIVMSQSPSSLAVSVGEKVTMSCKSSQSLLYSSNQKNYLAWYQQKLGQSPKLLIYWASTRESGVPDRFTGSGSGTDFTLTISSVKAEDLAVYYCQHYYSYPRTFGGGTKLEIK	8.12
2. Recombinant anti-CD98 chimeric antibody chAb14 (antibody, human IgG1, V domains shown) VH: EVKLQQSGDELVRPGASVKISCKASGYTFTSYSMHWVKERPGQGLEWIGAIFPIIGTTEYNQKFKGKATLTADKSSNTANMELSRLTSEDSAVYYCARVYLSYFDYWGQGVMVTVSS VL: DIQMTQSPSFLSASVGDRVTINCKASQNINKYLDWYQRKHGEAPKLLIYNTNNLQTGIPSRFSGSGSGTDYTLTISSLQPEDVATYFCLQHSSRYTFGAGTKLELK	8.41

Moving on to the next binder.
For this binder ( Recombinant anti-CD98 chimeric antibody chAb13 (antibody, human IgG1, V domains shown, also called chAbl 3) VH: QVQLKESGPGLVQPSQTLSLTCTVSGFSLSSYGVIWVRQPPGKGLEWMGIIWANGNTNYNSALKSRLSISRDTSKSQVYLKMNSLQTEDTATYYCARHYYDGTHYYGYFDYWGQGVMVTVSS VL: DTVMTQTPSSQAVSAGEKVTMSCKSSQSLLYSENKKKYLAWYQQKPGQSPKLLIYWASTRESGVPDRFIGSGSGTDFTLTISSVQAEDLAVYYCQQYYNFPYTFGAGTKLELK ), measured pKd is 8.92
